Each record here notes measured hGCGR/hGLP1R (hTone): ratio of cAMP EC50 at human GCGR to cAMP EC50 at human GLP1R.
# experimentalSystem: human glucagon receptor (human, UniProt P47871 26-477)
# Sequence (P47871 26-477): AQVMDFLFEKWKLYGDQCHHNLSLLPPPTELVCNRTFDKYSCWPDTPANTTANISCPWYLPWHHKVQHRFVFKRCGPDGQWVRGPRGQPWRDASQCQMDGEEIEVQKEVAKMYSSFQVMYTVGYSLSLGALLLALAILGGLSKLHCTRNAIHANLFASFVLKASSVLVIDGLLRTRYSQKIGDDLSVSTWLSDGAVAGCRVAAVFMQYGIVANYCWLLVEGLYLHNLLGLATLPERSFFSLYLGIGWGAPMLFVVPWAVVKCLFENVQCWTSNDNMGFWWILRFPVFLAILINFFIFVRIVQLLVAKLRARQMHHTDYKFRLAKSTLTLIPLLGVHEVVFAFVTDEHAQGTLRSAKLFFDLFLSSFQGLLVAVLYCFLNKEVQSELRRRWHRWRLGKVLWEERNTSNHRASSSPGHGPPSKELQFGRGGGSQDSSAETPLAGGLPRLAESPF
# testProtocol: cell-based or functional assay
testReadout: hGCGR/hGLP1R (hTone): ratio of cAMP EC50 at human GCGR to cAMP EC50 at human GLP1R

[[record]]
binder = "HXQGTFTSDKSKYLDERAAQDFVQWLLDT (D-Ser at 2; Lys 10 conjugated to γEγE-C16 (palmitoyl); C-terminal amide) [Comparator Co-agonist Peptide 6]"
observed = "1.3 ratio"

[[record]]
binder = "HXQGTXTSDKSKYLDERAAQDFVQWLLDT (D-Ser at 2; p-fluorophenylalanine (pFF) at 6; Lys 10 conjugated to γEγE-C16 (palmitoyl); C-terminal amide) [Co-agonist Peptide 9]"
observed = "0.93 ratio"

[[record]]
binder = "HXQGTFTSDXSKYLDARAAQDFVQWLLDT (D-Ser at 2; para-aminomethyl phenylalanine (pAF) at 10 conjugated to γEγE-C16 (palmitoyl); C-terminal amide) [Co-agonist Peptide 12]"
observed = "0.98 ratio"


Just for reference, patent US20160114000A1 is where these values come from.
